The following compounds are listed with their measured remaining at 10 min, 0.5 µM values.
Assay: Metabolic stability in mouse liver microsomes assessed as compound remaining at 0.5 uM incubated for 10 mins in presence of NADPH by UV absorbance based assay
Assay type: ADME, Microsome
Settings: read-out: Stability

[
  {
    "Smiles entry": "CCC[C@@H](CCO)Nc1nc(N)nc2cnn(Cc3ccc(CNC4CCOCC4)cc3OC)c12",
    "remaining at 10 min, 0.5 µM (%)": 81
  },
  {
    "Smiles entry": "CCC[C@H](CCO)Nc1nc(N)nc2cnn(Cc3ncc(C4CCN(C5CCOCC5)CC4)cc3OC)c12",
    "remaining at 10 min, 0.5 µM (%)": 95
  },
  {
    "Smiles entry": "CCC[C@@H](CCO)Nc1nc(N)nc2cnn(Cc3ncc(C4CC5(CNC5)C4)cc3OC)c12",
    "remaining at 10 min, 0.5 µM (%)": 100
  },
  {
    "Smiles entry": "CCC[C@@H](CCO)Nc1nc(N)nc2cnn(Cc3ncc(C4CCN(C5CCOCC5)CC4)cc3OC)c12",
    "remaining at 10 min, 0.5 µM (%)": 100
  },
  {
    "Smiles entry": "CCC[C@@H](CCO)Nc1nc(N)nc2cnn(Cc3ncc(C4CC5(C4)CN(C4CCOCC4)C5)cc3OC)c12",
    "remaining at 10 min, 0.5 µM (%)": 66
  },
  {
    "Smiles entry": "CCCCNc1nc(N)nc2cnn(Cc3ncc(C4CCNCC4)cc3OC)c12",
    "remaining at 10 min, 0.5 µM (%)": 97
  },
  {
    "Smiles entry": "CCC[C@@H](CCO)Nc1nc(N)nc2cnn(Cc3ncc(C4CCN(CCO)CC4)cc3OC)c12",
    "remaining at 10 min, 0.5 µM (%)": 100
  }
]

====

// reported IC50 for each item listed
Target: Cytochrome P450 2C9 (Homo sapiens, UniProt P11712)
Sequence (P11712 whole entry): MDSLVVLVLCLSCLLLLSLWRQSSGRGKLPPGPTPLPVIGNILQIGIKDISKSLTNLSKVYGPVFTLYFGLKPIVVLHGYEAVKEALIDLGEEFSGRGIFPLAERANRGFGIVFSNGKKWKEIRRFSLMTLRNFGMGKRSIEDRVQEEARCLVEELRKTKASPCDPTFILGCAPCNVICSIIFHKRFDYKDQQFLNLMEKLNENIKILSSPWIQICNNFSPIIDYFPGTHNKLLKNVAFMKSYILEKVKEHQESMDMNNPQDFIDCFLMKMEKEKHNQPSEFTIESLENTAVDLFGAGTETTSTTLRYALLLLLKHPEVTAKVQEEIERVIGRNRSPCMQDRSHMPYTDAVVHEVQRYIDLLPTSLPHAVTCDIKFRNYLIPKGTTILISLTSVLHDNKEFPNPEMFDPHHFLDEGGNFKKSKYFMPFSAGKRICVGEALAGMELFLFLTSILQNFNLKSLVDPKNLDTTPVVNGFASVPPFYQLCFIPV

[
  {
    "Smiles entry": "CCC[C@@H](CCO)Nc1nc(N)nc2cnn(Cc3ncc(C4CCN(C(C)C)CC4)cc3OC)c12",
    "System under test": "Cytochrome P450 2C9 (Homo sapiens, UniProt P11712)",
    "IC50": "> 20 µM"
  },
  {
    "Smiles entry": "CCC[C@@H](CCO)Nc1nc(N)nc2cnn(Cc3ncc(C4CC5(C4)CN(C4CCOCC4)C5)cc3OC)c12",
    "System under test": "Cytochrome P450 2C9 (Homo sapiens, UniProt P11712)",
    "IC50": "> 20 µM"
  },
  {
    "Smiles entry": "CCC[C@@H](CCO)Nc1nc(N)nc2cnn(Cc3ncc(C4CCC5(CC4)CN(C(C)C)C5)cc3OC)c12",
    "System under test": "Cytochrome P450 2C9 (Homo sapiens, UniProt P11712)",
    "IC50": "> 20 µM"
  },
  {
    "Smiles entry": "CCCCNc1nc(N)nc2c(C3CC3)nn(Cc3ncc(C4CCNCC4)cc3OC)c12",
    "System under test": "Cytochrome P450 2C9 (Homo sapiens, UniProt P11712)",
    "IC50": "17.6 µM"
  },
  {
    "Smiles entry": "CCC[C@H](CCO)Nc1nc(N)nc2cnn(Cc3ncc(C4CCN(C5CCOCC5)CC4)cc3OC)c12",
    "System under test": "Cytochrome P450 2C9 (Homo sapiens, UniProt P11712)",
    "IC50": "> 20 µM"
  },
  {
    "Smiles entry": "CCC[C@@H](CCO)Nc1nc(N)nc2cnn(Cc3ncc(C4=CC5(CCN(C(C)C)CC5)C4)cc3OC)c12",
    "System under test": "Cytochrome P450 2C9 (Homo sapiens, UniProt P11712)",
    "IC50": "> 20 µM"
  },
  {
    "Smiles entry": "CCC[C@@H](CCO)Nc1nc(N)nc2cnn(Cc3ncc(C4CCN(CC#N)CC4)cc3OC)c12",
    "System under test": "Cytochrome P450 2C9 (Homo sapiens, UniProt P11712)",
    "IC50": "> 20 µM"
  },
  {
    "Smiles entry": "CCCCNc1nc(N)nc2c(CC)nn(Cc3ncc(C4CCNCC4)cc3OC)c12",
    "System under test": "Cytochrome P450 2C9 (Homo sapiens, UniProt P11712)",
    "IC50": "> 20 µM"
  },
  {
    "Smiles entry": "CCC[C@@H](CCO)Nc1nc(N)nc2cnn(Cc3ncc(C4CCC5(CC4)CNC5)cc3OC)c12",
    "System under test": "Cytochrome P450 2C9 (Homo sapiens, UniProt P11712)",
    "IC50": "> 14 µM"
  }
]

# credit: ChEMBL document CHEMBL5357082
